Sourced from paper PMC10859961

test system: calf thymus DNA (CT-DNA); assay: Competitive EtBr displacement assay; format: binding; conditions: CT-DNA saturated with EtBr; 1 h, room temperature; read-out: C50 (50% reduction of EtBr fluorescence)
Entries and their pIC50
Interpret pIC50 as the negative base-10 log of the concentration measured in mol/L.

Record excerpt, results attached:
molecule	pIC50
Cc1c(C)c(C)[c-](C)c1C.F[B-](F)(F)F.c1ccc2cc3nc4c5ccc[n+]6c5c5[c](cccc5c4nc3cc2c1)[Ir]6[n+]1cc[nH]c1 [complex 4, [(η^5-C5Me5)Ir(Im)(pbpn)]BF4]	4.80
Cc1c(C)c(C)[c-](C)c1C.F[B-](F)(F)F.c1ccc2nc3c4ccc[n+]5c4c4[c](cccc4c3nc2c1)[Ir]5[n+]1ccn(CCN2CCCCC2)c1 [complex 5, [(η^5-C5Me5)Ir(Imepip)(pbpz)]BF4]	4.26
Cc1c(C)c(C)[c-](C)c1C.F[B-](F)(F)F.c1ccc(Cn2cc[n+]([Ir]3[c]4cccc5c6nc7ccccc7nc6c6ccc[n+]3c6c45)c2)cc1 [complex 7, [(η^5-C5Me5)Ir(bzIm)(pbpz)]BF4]	4.02
Cc1c(C)c(C)[c-](C)c1C.F[B-](F)(F)F.c1ccc2nc3c4ccc[n+]5c4c4[c](cccc4c3nc2c1)[Ir]5[n+]1cc[nH]c1 [complex 3, [(η^5-C5Me5)Ir(Im)(pbpz)]BF4]	4.79
Cc1c(C)c(C)[c-](C)c1C.F[B-](F)(F)F.c1ccc2cc3nc4c5ccc[n+]6c5c5[c](cccc5c4nc3cc2c1)[Ir]6[n+]1ccn(CCN2CCCCC2)c1 [complex 6, [(η^5-C5Me5) Ir(Imepip)(pbpn)]BF4]	4.48

(Q) Request the reported pIC50 associated with Cc1c(C)c(C)[c-](C)c1C.F[B-](F)(F)F.c1ccc(Cn2cc[n+]([Ir]3[c]4cccc5c6nc7cc8ccccc8cc7nc6c6ccc[n+]3c6c45)c2)cc1 [complex 8, [(η^5-C5Me5)Ir(bzIm)(pbpn)]BF4]
(A) 4.80

(Q) Request the reported pIC50 associated with Cc1c(C)c(C)[c-](C)c1C.[Cl][Ir]1[c]2cccc3c4nc5ccccc5nc4c4ccc[n+]1c4c23 [complex 1, [(η^5-C5Me5)IrCl(pbpz)]]
(A) 3.72
